- Tested on: LpxC–9 complex
- EXPERIMENT NOTES: NMR-ILOE (interligand NOESY) of fragment hits with LpxC and 9
- PARTICULARS: fragment hits binding the LpxC–9 complex by STD and WaterLogsy; 6 μM LpxC
MEASURED ENDPOINT: Inter-Ligand NOESY peaks between the fragment and 9

>>> reported("Cn1c(O)cc2ccccc21")
"no"
>>> reported("c1ccc(-c2cc[nH]n2)cc1")
"yes"
>>> reported("O=c1cc[nH]c(=O)[nH]1")
"no"
>>> reported("NC(=O)Cc1c[nH]c2ccc(Cl)cc12")
"yes"
>>> reported("c1ccc(C2NCCn3cccc32)cc1 (centres unmarked)")
"no"

====

- SYSTEM NAME: P. aeruginosa LpxC (Pseudomonas aeruginosa, UniProt P47205)
- Sequence (P47205 whole entry): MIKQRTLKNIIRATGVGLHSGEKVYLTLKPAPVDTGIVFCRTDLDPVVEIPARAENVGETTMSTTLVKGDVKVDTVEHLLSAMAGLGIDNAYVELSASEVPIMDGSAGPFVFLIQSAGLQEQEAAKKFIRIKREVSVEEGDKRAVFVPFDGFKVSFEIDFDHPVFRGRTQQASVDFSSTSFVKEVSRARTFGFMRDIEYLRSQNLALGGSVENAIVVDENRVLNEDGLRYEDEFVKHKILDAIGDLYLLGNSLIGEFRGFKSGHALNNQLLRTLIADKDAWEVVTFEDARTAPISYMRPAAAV
- EXPERIMENT NOTES: LC–MS/MS-based P. aeruginosa LpxC enzyme inhibition assay
- PARTICULARS: from IC50 via Cheng–Prusoff
// thresholds for Ki classes: class 1: < 0.04 µM; class 2: ≥ 0.04 µM and < 0.2 µM; class 3: ≥ 0.2 µM

>>> label("O=C(NC[C@H](OCc1ccc(C#Cc2ccc(CN3CCOCC3)cc2)cc1)C(=O)NO)c1cccc(-c2ccccc2)c1 [(S)-13c]")
"class 2"
>>> label("O=C(NC[C@@H](OCc1ccc(C#Cc2ccc(CN3CCOCC3)cc2)cc1)C(=O)NO)c1c[nH]c2ccccc12 [(R)-13h]")
"class 3"
>>> label("O=C(NO)[C@H](CNCc1ccccc1)OCc1ccc(C#Cc2ccc(CN3CCOCC3)cc2)cc1 [(S)-12a]")
"class 3"
>>> label("O=C(NC[C@H](OCc1ccc(C#Cc2ccc(CN3CCOCC3)cc2)cc1)C(=O)NO)c1cccc2[nH]ccc12 [(S)-13i]")
"class 1"
>>> label("O=C(NO)[C@H](CN(Cc1ccccc1)Cc1ccccc1)OCc1ccc(C#Cc2ccc(CN3CCOCC3)cc2)cc1 [(S)-37]")
"class 3"
>>> label("O=C(NC[C@H](OCc1ccc(C#Cc2ccc(CN3CCOCC3)cc2)cc1)C(=O)NO)c1ccc[nH]1 [(S)-13k]")
"class 1"
>>> label("O=C(NC[C@H](OCc1ccc(C#Cc2ccc(CN3CCOCC3)cc2)cc1)C(=O)NO)c1cc(-c2ccccc2)[nH]n1 [(S)-13m]")
"class 2"
>>> label("Cc1noc(C)c1C(=O)NC[C@H](OCc1ccc(C#Cc2ccc(CN3CCOCC3)cc2)cc1)C(=O)NO [(S)-13n]")
"class 2"
>>> label("O=C(NC[C@H](OCc1ccc(C#Cc2ccc(CN3CCOCC3)cc2)cc1)C(=O)NO)c1cc2ccccc2[nH]1 [(S)-13g]")
"class 2"
>>> label("O=C(NC[C@H](OCc1ccc(C#Cc2ccc(CN3CCOCC3)cc2)cc1)C(=O)NO)c1cc[nH]n1 [(S)-13l]")
"class 1"
>>> label("O=C(NC[C@H](OCc1ccc(C#Cc2ccc(CN3CCOCC3)cc2)cc1)C(=O)NO)c1ccccc1 [(S)-13a]")
"class 2"
>>> label("O=C(NC[C@H](OCc1ccc(C#Cc2ccc(CN3CCOCC3)cc2)cc1)C(=O)NO)c1c[nH]c2ccccc12 [(S)-13h]")
"class 1"
>>> label("O=C(NO)[C@H](COCc1ccccc1)OCc1ccc(C#Cc2ccc(CN3CCOCC3)cc2)cc1 [(S)-11a]")
"class 3"
>>> label("O=C(NC[C@H](OCc1ccc(C#Cc2ccc(CN3CCOCC3)cc2)cc1)C(=O)NO)c1cnc2ccccc2c1 [(S)-13f]")
"class 2"
>>> label("O=C(NC[C@H](OCc1ccc(C#Cc2ccc(CN3CCOCC3)cc2)cc1)C(=O)NO)c1ccc2ccccc2n1 [(S)-13e]")
"class 2"

====

Listing of recorded half-life at 1 μM by entry.
- EXPERIMENT NOTES: metabolic stability in mouse liver S9 fractions
- Format: in vitro ADME
- PARTICULARS: pooled liver S9 fraction, 1 μM compound, 1 mg/mL S9, phase I and II cofactors, read-out: metabolic stability in mouse liver S9 fractions t1/2
MEASURED ENDPOINT: half-life at 1 μM (min)

>>> reported("O=C(NC[C@H](OCc1ccc(C#Cc2ccc(CN3CCOCC3)cc2)cc1)C(=O)NO)c1c[nH]c2ccccc12 [(S)-13h]")
15.5
>>> reported("O=C(NC[C@H](OCc1ccc(C#Cc2ccc(CN3CCOCC3)cc2)cc1)C(=O)NO)c1ccc2[nH]ccc2c1 [(S)-13j]")
25.5

====

- SYSTEM NAME: LasB (Pseudomonas aeruginosa)
- Construct: The elastase LasB of P. aeruginosa is a secreted metalloprotease; endogenous in cells
- Sequence (Q02RJ6 198-498): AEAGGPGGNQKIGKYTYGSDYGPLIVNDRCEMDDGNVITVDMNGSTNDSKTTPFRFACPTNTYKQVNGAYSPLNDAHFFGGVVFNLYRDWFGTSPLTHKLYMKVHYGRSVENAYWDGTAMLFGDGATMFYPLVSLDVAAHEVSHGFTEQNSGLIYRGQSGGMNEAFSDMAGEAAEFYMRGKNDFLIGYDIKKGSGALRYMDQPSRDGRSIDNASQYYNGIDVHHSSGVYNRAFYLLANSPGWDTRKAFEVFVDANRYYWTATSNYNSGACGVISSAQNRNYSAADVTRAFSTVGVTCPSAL
- EXPERIMENT NOTES: FRET-based LasB in vitro inhibition assay
pIC50: −log10 of the molar value.
MEASURED ENDPOINT: pIC50

>>> reported("O=C(NO)[C@H](CNCc1ccccc1)OCc1ccc(C#Cc2ccc(CN3CCOCC3)cc2)cc1 [(S)-12a]")
4.66
>>> reported("Cc1noc(C)c1C(=O)NC[C@H](OCc1ccc(C#Cc2ccc(CN3CCOCC3)cc2)cc1)C(=O)NO [(S)-13n]")
5.74
>>> reported("O=C(NO)[C@H](COCc1ccccc1)OCc1ccc(C#Cc2ccc(CN3CCOCC3)cc2)cc1 [(S)-11a]")
4.84

====

Recorded solubility kinetic at 5 min, one value per entry.
- EXPERIMENT NOTES: kinetic turbidimetric solubility
- Assay type: physicochemical
- PARTICULARS: PBS with 1% DMSO, Kinetic solubility (1% DMSO/PBS)
MEASURED ENDPOINT: solubility kinetic at 5 min

>>> reported("O=C(NC[C@H](OCc1ccc(C#Cc2ccc(CN3CCOCC3)cc2)cc1)C(=O)NO)c1c[nH]c2ccccc12 [(S)-13h]")
"53.5 µM"
>>> reported("O=C(NC[C@H](OCc1ccc(C#Cc2ccc(CN3CCOCC3)cc2)cc1)C(=O)NO)c1cc[nH]n1 [(S)-13l]")
"≥ 100 µM"
>>> reported("O=C(NC[C@H](OCc1ccc(C#Cc2ccc(CN3CCOCC3)cc2)cc1)C(=O)NO)c1ccc2[nH]ccc2c1 [(S)-13j]")
"46 µM"

====

Overview of recorded IC50 for various compounds
- EXPERIMENT NOTES: MTT-based cytotoxicity assay
- Type: cell-based
- PARTICULARS: human, HepG2 cells
MEASURED ENDPOINT: IC50 (µM)

>>> reported("O=C(NC[C@H](OCc1ccc(C#Cc2ccc(CN3CCOCC3)cc2)cc1)C(=O)NO)c1ccc2[nH]ccc2c1 [(S)-13j]")
8.1
>>> reported("O=C(NC[C@H](OCc1ccc(C#Cc2ccc(CN3CCOCC3)cc2)cc1)C(=O)NO)c1c[nH]c2ccccc12 [(S)-13h]")
15.1
>>> reported("O=C(NC[C@H](OCc1ccc(C#Cc2ccc(CN3CCOCC3)cc2)cc1)C(=O)NO)c1cc[nH]n1 [(S)-13l]")
30.2

====

Form field: half-life at 1 μM (one value per entry).
- EXPERIMENT NOTES: stability in mouse plasma
- Format: in vitro ADME
- PARTICULARS: CD-1, mouse, pooled plasma, 1 μM compound, pooled CD-1 mouse plasma; read-out: mouse plasma stability t1/2
MEASURED ENDPOINT: half-life at 1 μM (min)

>>> reported("O=C(NC[C@H](OCc1ccc(C#Cc2ccc(CN3CCOCC3)cc2)cc1)C(=O)NO)c1cc[nH]n1 [(S)-13l]")
24.2
>>> reported("O=C(NC[C@H](OCc1ccc(C#Cc2ccc(CN3CCOCC3)cc2)cc1)C(=O)NO)c1ccc2[nH]ccc2c1 [(S)-13j]")
43.1
>>> reported("O=C(NC[C@H](OCc1ccc(C#Cc2ccc(CN3CCOCC3)cc2)cc1)C(=O)NO)c1c[nH]c2ccccc12 [(S)-13h]")
22.9

====

- SYSTEM NAME: LasB (Pseudomonas aeruginosa)
- Construct: The elastase LasB of P. aeruginosa is a secreted metalloprotease; endogenous in cells; host or cells: P. aeruginosa PA14 culture supernatant
- EXPERIMENT NOTES: FRET-based LasB in vitro inhibition assay
- Format: biochemical, P. aeruginosa PA14
- PARTICULARS: read-out: LasB Inhibition at 20 μM
Please enter class 1 where inhibition at 20 µM is greater than or equal to 20%, and class 0 where it is lower.

>>> label("O=C(NC[C@H](OCc1ccc(C#Cc2ccc(CN3CCOCC3)cc2)cc1)C(=O)NO)c1ccc[nH]1 [(S)-13k]")
"class 1"
>>> label("O=C(NC[C@H](OCc1ccc(C#Cc2ccc(CN3CCOCC3)cc2)cc1)C(=O)NO)c1c[nH]c2ccccc12 [(S)-13h]")
"class 1"
>>> label("O=C(NC[C@H](OCc1ccc(C#Cc2ccc(CN3CCOCC3)cc2)cc1)C(=O)NO)c1cccc(-c2ccccc2)c1 [(S)-13c]")
"class 0"
>>> label("Cc1noc(C)c1C(=O)NC[C@H](OCc1ccc(C#Cc2ccc(CN3CCOCC3)cc2)cc1)C(=O)NO [(S)-13n]")
"class 1"
>>> label("O=C(NC[C@H](OCc1ccc(C#Cc2ccc(CN3CCOCC3)cc2)cc1)C(=O)NO)c1ccc2ccccc2n1 [(S)-13e]")
"class 0"
>>> label("O=C(NO)[C@H](COCc1ccccc1)OCc1ccc(C#Cc2ccc(CN3CCOCC3)cc2)cc1 [(S)-11a]")
"class 1"

Recorded values, source paper PMC11472313.
